- Protocol Text: AUC (0 to infinity) in male Sprague-Dawley rat at 0.5 mg/kg, iv measured after 2 to 720 mins by LC-MS/MS analysis
- Assay type: ADME, organism-based
- Experimental Context: in vivo, time 2-720 min

{"columns": ["Chemical Smiles", "AUC(0-inf)"],
 "data": [
  ["CCn1c2ccccc2c2cc(Nc3ccnc(Nc4ccc(C)c(OC)c4)n3)ccc21", "885 ng·h/mL"]
]}

====

- Protocol Text: Ratio of drug concentration in male mouse brain to plasma at 10 mg/kg, ip measured after 2 hrs by LC-MS/MS analysis
- Format: ADME, organism-based
- Experimental Context: brain and plasma, read-out: BPR

{"columns": ["Chemical Smiles", "Kp at 2 h"],
 "data": [
  ["CCn1c2ccccc2c2cc(Nc3ccnc(Nc4ccc(C)c(OC)c4)n3)ccc21", 0.38]
]}

====

- Protocol Text: Drug concentration in male mouse plasma at 10 mg/kg, ip measured after 2 hrs by LC-MS/MS analysis
- Assay type: ADME, organism-based

{"columns": ["Chemical Smiles", "concentration at 2 h [ng/mL]"],
 "data": [
  ["CCn1c2ccccc2c2cc(Nc3ccnc(Nc4ccc(C)c(OC)c4)n3)ccc21", 60.4]
]}

====

- Protocol Text: AUC (0 to t) in male Sprague-Dawley rat at 0.5 mg/kg, iv measured after 2 to 720 mins by LC-MS/MS analysis
- Assay type: ADME, organism-based
- Experimental Context: in vivo, time 2-720 min
Measured Metric: AUC(0-t) (ng·h/mL)

{"columns": ["Chemical Smiles", "Number"],
 "data": [
  ["CCn1c2ccccc2c2cc(Nc3ccnc(Nc4ccc(C)c(OC)c4)n3)ccc21", 801]
]}
